Molecular target: G-protein coupled receptor 35 (Homo sapiens)
Experiment: Agonist activity at GPR35 in human HT-29 cells by dynamic mass redistribution assay relative to zaprinast
Format: functional, cell-based
measure.name: Efficacy (pm)

>  <compound>
O=C(O)c1sc2c(Br)c(Br)sc2c1C(F)(F)F

>  <unit.tag>
pm

>  <Efficacy>
230

$$$$
>  <compound>
Cc1c(C(=O)O)[nH]c2c(Br)csc12

>  <unit.tag>
pm

>  <Efficacy>
222

$$$$
>  <compound>
Cc1c(C(=O)O)sc2c(Br)c(Br)sc12

>  <unit.tag>
pm

>  <Efficacy>
232

$$$$

I = C#Cc1csc2c(C)c(C(=O)O)sc12
II = O=C(O)c1sc2ccsc2c1O
Which value of Efficacy is numerically greater: that of I or that of II ? Respond using the label that marks the chosen record.
I
(I: 257 pm, II: 159 pm)

====

Biological target: G-protein coupled receptor 35 (Homo sapiens, UniProt Q9HC97)
Sequence (Q9HC97 whole entry, the tested form may be a part): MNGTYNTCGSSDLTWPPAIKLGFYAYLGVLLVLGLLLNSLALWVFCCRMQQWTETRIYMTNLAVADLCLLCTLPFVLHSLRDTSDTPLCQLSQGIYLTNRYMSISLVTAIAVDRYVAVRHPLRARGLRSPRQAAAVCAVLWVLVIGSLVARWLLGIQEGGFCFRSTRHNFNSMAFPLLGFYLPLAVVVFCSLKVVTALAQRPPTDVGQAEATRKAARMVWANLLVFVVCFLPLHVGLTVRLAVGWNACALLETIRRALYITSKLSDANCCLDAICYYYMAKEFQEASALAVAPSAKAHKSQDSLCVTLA
Experiment: Agonist activity at GPR35 in human U20S cells expressing beta-lactamase and Gal4-VP16 transcription factor assessed as beta arrestin translocation after 5 hrs by Tango assay
Format: functional, cell-based, U2OS
Details: read-out: EC50
measure.name: EC50 (µM)

>  <smiles.input>
Cc1c(C(=O)O)sc2c(-c3cccnc3)csc12

>  <unit.tag>
µM

>  <EC50>
11.8

$$$$
>  <smiles.input>
C#Cc1csc2c(C)c(C(=O)O)sc12

>  <unit.tag>
µM

>  <EC50>
54.8

$$$$
>  <smiles.input>
Cc1c(C(=O)O)sc2c(-c3cn[nH]c3)csc12

>  <unit.tag>
µM

>  <EC50>
52.5

$$$$

A = Cc1c(C(=O)O)sc2c(Br)csc12
B = O=C(O)c1sc2c(Br)csc2c1Cl
C = O=C(O)c1sc2c(Br)csc2c1C1CC1
D = Cc1sc2c(C)c(C(=O)O)sc2c1Br
Order these by EC50, descending, and give the full ranking. # answer = labels listed in requested order
C, B, D, A
(C: 504 µM, B: 39.2 µM, D: 22.2 µM, A: 8.3 µM)

====

Biological target: G-protein coupled receptor 35 (Homo sapiens, UniProt Q9HC97)
Assay: Agonist activity at GPR35 in human HT-29 cells by dynamic mass redistribution assay
Type: functional, cell-based
Settings: read-out: EC50
pEC50: −log10 of the molar value.
measure.name: pEC50

Worked cases, pEC50 given:
>  <smiles.input>
Cc1c(C(=O)O)[nH]c2c(-c3cccnc3)csc12

>  <subject.of.test>
G-protein coupled receptor 35 (Homo sapiens, UniProt Q9HC97)

>  <value.reported>
6.20

$$$$
>  <smiles.input>
Cc1c(C(=O)O)sc2c(-c3ccsc3)csc12

>  <subject.of.test>
G-protein coupled receptor 35 (Homo sapiens, UniProt Q9HC97)

>  <value.reported>
6.59

$$$$
>  <smiles.input>
O=C(O)c1sc2c(Br)csc2c1Cl

>  <subject.of.test>
G-protein coupled receptor 35 (Homo sapiens, UniProt Q9HC97)

>  <value.reported>
5.99

$$$$
>  <smiles.input>
C#Cc1csc2c(C)c(C(=O)O)sc12

>  <subject.of.test>
G-protein coupled receptor 35 (Homo sapiens, UniProt Q9HC97)

>  <value.reported>
5.83

$$$$
>  <smiles.input>
O=C(O)c1sc2c(Br)c(Br)sc2c1O

>  <subject.of.test>
G-protein coupled receptor 35 (Homo sapiens, UniProt Q9HC97)

>  <value.reported>
7.80

$$$$

A = Cc1c(C(=O)O)n(C)c2c(Br)csc12
B = O=C(O)c1sc2c(Br)csc2c1C1CC1
Of A and B , which shows the smaller pEC50 value? Respond using the label that marks the chosen record.
A
(A: 5.28, B: 5.58)

====

Target: G-protein coupled receptor 35 (Homo sapiens, UniProt Q9HC97)
Assay: Agonist activity at GPR35 in human HT-29 cells by dynamic mass redistribution assay relative to zaprinast
Type: functional, cell-based
measure.name: Efficacy (pm)

>  <smiles.input>
Cc1c(C(=O)O)sc2c(-c3cn[nH]c3)csc12

>  <subject.of.test>
G-protein coupled receptor 35 (Homo sapiens, UniProt Q9HC97)

>  <value.reported>
180

$$$$
>  <smiles.input>
Cc1c(C(=O)O)n(C)c2c(Br)csc12

>  <subject.of.test>
G-protein coupled receptor 35 (Homo sapiens, UniProt Q9HC97)

>  <value.reported>
290

$$$$
>  <smiles.input>
Cc1c(C(=O)O)[nH]c2c(-c3cccnc3)csc12

>  <subject.of.test>
G-protein coupled receptor 35 (Homo sapiens, UniProt Q9HC97)

>  <value.reported>
210

$$$$
>  <smiles.input>
O=C(O)c1sc2c(Br)csc2c1C1CC1

>  <subject.of.test>
G-protein coupled receptor 35 (Homo sapiens, UniProt Q9HC97)

>  <value.reported>
246

$$$$
>  <smiles.input>
O=C(O)c1sc2c(Br)csc2c1Cl

>  <subject.of.test>
G-protein coupled receptor 35 (Homo sapiens, UniProt Q9HC97)

>  <value.reported>
262

$$$$
>  <smiles.input>
Cc1c(C(=O)O)sc2c(C3CC3)csc12

>  <subject.of.test>
G-protein coupled receptor 35 (Homo sapiens, UniProt Q9HC97)

>  <value.reported>
262

$$$$
>  <smiles.input>
Cc1c(C(=O)O)sc2c(-c3cccnc3)csc12

>  <subject.of.test>
G-protein coupled receptor 35 (Homo sapiens, UniProt Q9HC97)

>  <value.reported>
223

$$$$

====

Target: G-protein coupled receptor 35 (Homo sapiens)
Assay: Agonist activity at GPR35 in human U2OS cells expressing beta-lactamase and Gal4-VP16 transcription factor assessed as beta arrestin translocation after 5 hrs by Tango assay relative to zaprinast
Assay type: functional, cell-based
measure.name: Efficacy (%)

>  <smiles.input>
O=C(O)c1sc2c(Br)csc2c1C1CC1

>  <Efficacy / %>
46

$$$$
>  <smiles.input>
Cc1c(C(=O)O)[nH]c2c(-c3cccnc3)csc12

>  <Efficacy / %>
120

$$$$
>  <smiles.input>
O=C(O)c1sc2c(Br)c(Br)sc2c1C(F)(F)F

>  <Efficacy / %>
52

$$$$
>  <smiles.input>
O=C(O)c1sc2ccsc2c1O

>  <Efficacy / %>
64

$$$$
>  <smiles.input>
Cc1c(C(=O)O)[nH]c2c(C3CC3)csc12

>  <Efficacy / %>
35

$$$$
>  <smiles.input>
C#Cc1csc2c(C)c(C(=O)O)sc12

>  <Efficacy / %>
102

$$$$
>  <smiles.input>
O=C(O)c1sc2c(Br)csc2c1Cl

>  <Efficacy / %>
68

$$$$
>  <smiles.input>
Cc1c(C(=O)O)[nH]c2c(Br)csc12

>  <Efficacy / %>
24

$$$$
>  <smiles.input>
O=C(O)c1sc2c(Br)c(Br)sc2c1O

>  <Efficacy / %>
96

$$$$
>  <smiles.input>
Cc1sc2c(C)c(C(=O)O)sc2c1Br

>  <Efficacy / %>
52

$$$$

I = Cc1c(C(=O)O)sc2c(C3CC3)csc12
II = Cc1c(C(=O)O)sc2c(Br)c(Br)sc12
Of I and II , which shows the smaller Efficacy value? Respond using the label that marks the chosen record.
II
(II: 52%, I: 101%)

====

Biological target: G-protein coupled receptor 35 (Homo sapiens)
Test: Agonist activity at GPR35 in human HT-29 cells by dynamic mass redistribution assay
Type: functional, cell-based
Conditions: read-out: EC50
measure.name: EC50 (µM)

Worked cases, EC50 given:
>  <smiles.input>
Cc1c(C(=O)O)[nH]c2c(Br)csc12

>  <measure.name>
EC50

>  <value.reported>
11.8

$$$$
>  <smiles.input>
Cc1c(C(=O)O)sc2c(Br)c(Br)sc12

>  <measure.name>
EC50

>  <value.reported>
0.7

$$$$

I = Cc1sc2c(C)c(C(=O)O)sc2c1Br
II = O=C(O)c1sc2ccsc2c1O
Of I and II , which shows the smaller EC50 value? Respond using the label that marks the chosen record.
I

====

Molecular target: G-protein coupled receptor 35 (Homo sapiens)
Assay: Agonist activity at GPR35 in human U20S cells expressing beta-lactamase and Gal4-VP16 transcription factor assessed as beta arrestin translocation after 5 hrs by Tango assay
Format: functional, cell-based, U2OS
Details: read-out: EC50
measure.name: EC50 (µM)

>  <smiles.input>
O=C(O)c1sc2c(Br)c(Br)sc2c1O

>  <EC50, µM>
2.46

$$$$
>  <smiles.input>
Cc1c(C(=O)O)[nH]c2c(-c3cccnc3)csc12

>  <EC50, µM>
26.9

$$$$
>  <smiles.input>
Cc1c(C(=O)O)[nH]c2c(Br)csc12

>  <EC50, µM>
113

$$$$

A = Cc1c(C(=O)O)sc2c(-c3ccsc3)csc12
B = Cc1c(C(=O)O)n(C)c2c(Br)csc12
C = Cc1c(C(=O)O)sc2c(Br)c(Br)sc12
D = Cc1c(C(=O)O)sc2c(C3CC3)csc12
E = O=C(O)c1sc2ccsc2c1O
Order these by EC50, descending, and give the full ranking. # answer = labels listed in requested order
E, B, D, C, A
(E: 340 µM, B: 87.5 µM, D: 52.4 µM, C: 36.5 µM, A: 17.6 µM)

I = Cc1c(C(=O)O)[nH]c2c(C3CC3)csc12
II = O=C(O)c1sc2c(Br)c(Br)sc2c1C(F)(F)F
Of I and II , which shows the smaller EC50 value? Respond using the label that marks the chosen record.
II
(II: 31.1 µM, I: 119 µM)

Reference source: ChEMBL document CHEMBL2034955
